assay: xn = mol fraction of the nth substance listed; details: 318.15 K, Wilhelmy plate method, x1 = 0.75
± gives the expanded uncertainty stated by the source.
MEASURE NAME: surface tension liquid-gas

COC(=O)c1ccccc1 [methyl benzoate] + CCO : 30.16 ± 0.41 mN/m
CCC(=O)OCc1ccccc1 [benzyl propanoate] + CCO : 28.83 ± 0.41 mN/m
CCOC(=O)c1ccccc1O [ethyl 2-hydroxybenzoate] + CCO : 29.4 ± 0.4 mN/m
CC(=O)OCc1ccccc1 [benzyl ethanoate] + CCO : 30.06 ± 0.4 mN/m
CCOC(=O)CC(C)C [ethyl 3-methylbutanoate] + CCO : 21.35 ± 0.41 mN/m
CCOC(=O)CC(C)=O [ethyl 3-oxobutanoate] + CCO : 27.78 ± 0.41 mN/m
